- tgt: T1, 犬CD20 (canine CD20, B淋巴细胞抗原CD20, full length, wild type) (canine (dog), UniProt Q3C2E2 1-297)
- T1 construct: Stably expressed from full-length cDNA on MDCK II (or HEK293) cells for flow cytometry and ADCC; naturally expressed on CLBL-1 canine lymphoma cells in the CDC assay; also called cCD20; MS4A1
- T1 chain: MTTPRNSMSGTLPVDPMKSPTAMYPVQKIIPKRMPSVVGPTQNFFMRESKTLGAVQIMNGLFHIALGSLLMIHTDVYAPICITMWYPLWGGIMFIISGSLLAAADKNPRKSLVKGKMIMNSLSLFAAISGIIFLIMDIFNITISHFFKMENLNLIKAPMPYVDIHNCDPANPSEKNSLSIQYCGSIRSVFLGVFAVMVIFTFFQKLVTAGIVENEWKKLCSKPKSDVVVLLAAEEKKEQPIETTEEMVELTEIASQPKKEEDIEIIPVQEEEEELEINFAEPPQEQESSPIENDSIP
- experiment: flow cytometry, 10 ug/ml antibody on MDCK II cells expressing canine CD20 (Fig 3C)
quantity: binding result

PMX075 (antibody, V domains shown) VH: EVQLVESGGDLVKPGGSLRLSCVASGITFSRYHMSWVRQAPGKGLQWVAFINTGRSSTNYADAVAGRFTISRDNAKNTLYLQMNGLTVEDTAVYYCSTLDYWGQGTLVTVSS VL: SYVLTQLPSKSVTLKQPAHITCGGDNIGSKSVHWYQQKLGQAPILIIYYDNNRPTGIPERFSGANSGNTATLTISGALAEDEADYYCHVWDSSVNVFGGGTHLTVL	binds
PMX081 (antibody, V domains shown) VH: EVQLVQSGGDLVKPGGSLRLSCVASGYTFTRYHMSWVRQAPGKGLQWVAFINSDGTGITYGDAVKGRFTISRDNAKNTLYLQMNSLRAEDTAIYYCTTFDSWGQGTLVTVSS VL: SYVLTQLPSKNVTLKQPAHITCGGDNIGSKSVHWYQQKLGQAPILIIYYDSRRPTGIPERFSGANSGNTATLTISGALAEDEADYYCQVWDSSGNVFGGGTHLTVL	binds
PMX074 (antibody, V domains shown) VH: EVQLVESGGDLVKPGGSLRLSCVASGFTFSRYYMTWVRQAPGKGLQWVAYINSDRRSTTYADAVKGRFTISRDNAKNTLYLQMNSLRAEDTAVYYCTTLEYWGQGTLVTVSS VL: SYVLTQLPSKNVTLKQPAHITCGGDNIGSKSVHWYQQKLGQAPVLIIYYDSRRPTGIPERFSGANSGNTATLTINGALAEDEADYYCQVWDSSANVFGGGTHLTVL	binds
PMX080 (antibody, V domains shown) VH: EVQLVESGGDLVKPGGSLRLSCVASGLTFSRYYMNWVRQAPGKGLQWVAYIDSGGSPTNYADAVKGRFTISRDNAKNTLYLQMNSLRAEDTAVYYCSSFDYWGQGTLVTVSS VL: SYVVTQLPSNTVTLKQPAHITCGGDNIGSKSVHWYQQKLGQAPVLIIYYDSRRPTGIPERFSGANSGNTATLTISGALAEDEADYYCQVWDSSANVFGGGTHLTVL	binds

These data points were gathered from patent CN117677637A.
